experiment: Half life in monkey; format: ADME, Macaca mulatta; conditions: rhesus monkey, in vivo
Outcome measure: half-life (h)
Entry rule: numbers only, all in h.

INPUT: Name the recorded half-life of the compound listed here: Cc1ccc2c(=O)[nH]c(-c3ccc(C(C)(C)O)cc3)cn12
OUTPUT: 1.01

* * *

molecular target: Poly [ADP-ribose] polymerase 1 (Homo sapiens, UniProt P09874); test: Inhibition of PARP-1 (unknown origin) using biotinylated NAD and NAD as substrate assessed as inhibition of auto-PARsylation incubated for 150 mins by TR-FRET assay
Sequence (P09874 whole entry): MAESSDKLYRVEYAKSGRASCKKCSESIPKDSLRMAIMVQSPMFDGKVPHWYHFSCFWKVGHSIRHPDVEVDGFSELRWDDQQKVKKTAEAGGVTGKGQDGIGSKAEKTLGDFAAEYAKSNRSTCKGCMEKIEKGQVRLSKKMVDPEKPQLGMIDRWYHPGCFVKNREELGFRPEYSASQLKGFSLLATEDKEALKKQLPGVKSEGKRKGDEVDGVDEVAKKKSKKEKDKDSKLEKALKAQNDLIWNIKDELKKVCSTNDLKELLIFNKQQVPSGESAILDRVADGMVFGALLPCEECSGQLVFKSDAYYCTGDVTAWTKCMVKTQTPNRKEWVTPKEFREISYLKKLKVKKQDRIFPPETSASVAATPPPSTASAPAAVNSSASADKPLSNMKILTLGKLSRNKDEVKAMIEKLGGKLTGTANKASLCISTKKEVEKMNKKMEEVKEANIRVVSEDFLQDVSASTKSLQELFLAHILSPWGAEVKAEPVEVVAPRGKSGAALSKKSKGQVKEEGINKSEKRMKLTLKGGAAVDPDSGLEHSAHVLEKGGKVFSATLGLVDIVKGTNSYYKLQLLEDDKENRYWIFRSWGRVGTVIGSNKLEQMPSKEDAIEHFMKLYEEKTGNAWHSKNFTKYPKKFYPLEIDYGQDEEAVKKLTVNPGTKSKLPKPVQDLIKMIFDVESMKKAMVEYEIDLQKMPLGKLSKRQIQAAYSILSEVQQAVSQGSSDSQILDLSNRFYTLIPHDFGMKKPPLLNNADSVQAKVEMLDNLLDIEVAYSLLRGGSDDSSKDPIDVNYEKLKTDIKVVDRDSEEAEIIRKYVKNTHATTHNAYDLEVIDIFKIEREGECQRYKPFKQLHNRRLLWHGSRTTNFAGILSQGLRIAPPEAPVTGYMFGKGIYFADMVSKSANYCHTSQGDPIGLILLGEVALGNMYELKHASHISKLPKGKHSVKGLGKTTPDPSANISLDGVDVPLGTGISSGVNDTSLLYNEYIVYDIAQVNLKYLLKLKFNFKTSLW
Measured pIC50, listed per entry.
Scale: negative log10 of molar concentration, which is what pIC50 denotes.

Examples with their reported pIC50 follow.
structure_as_smiles=CC(C)(O)c1ccc(-c2cn3c(F)ccc3c(=O)[nH]2)cc1 outcome_measure=pIC50 assay_value=5.70
structure_as_smiles=Cc1ccc2c(=O)[nH]c(-c3ccc([C@@](C)(O)CCO)cc3)cn12 outcome_measure=pIC50 assay_value=6.47
structure_as_smiles=Cc1ccc2c(=O)[nH]c(-c3ccc(C(C)(C)O)cc3)nn12 outcome_measure=pIC50 assay_value=6.02
structure_as_smiles=Cc1ccc2c(=O)[nH]c(-c3ccc([C@](C)(O)CO)cc3)cn12 outcome_measure=pIC50 assay_value=6.22
structure_as_smiles=CC(C)(O)c1ccc(-c2cn3c(CO)ccc3c(=O)[nH]2)cc1 outcome_measure=pIC50 assay_value=5.38

INPUT: Give the value of pIC50 reported for the following: Cc1ccc2c(=O)[nH]c(-c3ccc([C@@](C)(O)CO)cc3)cn12
OUTPUT: 6.13

INPUT: Provide one value: measured pIC50 of Cc1csc2c(=O)[nH]c(-c3ccc(C(C)(C)O)cc3)nc12
OUTPUT: 6.36

INPUT: Return value of pIC50 for input CC(C)(O)c1ccc(-c2cn3cccc3c(=O)[nH]2)cc1 , no commentary.
OUTPUT: 6.04

INPUT: State its pIC50: Cc1cc2c(=O)[nH]c(-c3ccc(C(C)(C)O)cc3)cn2n1
OUTPUT: 5.43

INPUT: Recall and state the measured pIC50 for Cc1ncc2c(=O)[nH]c(-c3ccc(C(C)(C)O)cc3)cn12 .
OUTPUT: 4.64

INPUT: Return the recorded pIC50 value; entry: CC(C)(O)c1ccc(-c2cn3cc(F)cc3c(=O)[nH]2)cc1
OUTPUT: 6.35

* * *

target: Poly [ADP-ribose] polymerase 1 (Homo sapiens); assay: Inhibition of PARP-1 (unknown origin) using biotinylated NAD and NAD as substrate assessed as inhibition of auto-PARsylation incubated for 150 mins by TR-FRET assay
Outcome measure: IC50 (µM)
Write the value in µM as a bare number.

Here are 2 compounds together with their reported answers.
structure_as_smiles=Cc1cc2c(=O)[nH]c(-c3ccc(C(C)(C)O)cc3)cn2c1 system_name="Poly [ADP-ribose] polymerase 1 (Homo sapiens)" outcome_measure=IC50 display_unit=µM assay_value=1.9
structure_as_smiles=CC(C)(O)c1ccc(-c2cn3c(F)c(F)cc3c(=O)[nH]2)cc1 system_name="Poly [ADP-ribose] polymerase 1 (Homo sapiens)" outcome_measure=IC50 display_unit=µM assay_value=1.3

INPUT: Would you please give the reported IC50 of Cc1ncc2c(=O)[nH]c(-c3ccc(C(C)(C)C)cc3)cn12 with Poly [ADP-ribose] polymerase 1 (Homo sapiens)?
OUTPUT: 28
